# ΔTm measurements, system: Casein kinase I isoform gamma-1 (Homo sapiens)
metric.name: ΔTm (°C)

>  <compound>
CN(C)CC1CCn2c(c(C3=C(c4c[nH]c5ccccc45)C(=O)NC3=O)c3ccccc32)C1 (stereo not given)

>  <metric.name>
ΔTm

>  <value.observed>
0.5

$$$$
>  <compound>
O=c1cc(-c2ccc(O)cc2)oc2cc(O)cc(O)c12

>  <metric.name>
ΔTm

>  <value.observed>
1.4

$$$$
>  <compound>
O=c1cc(N2CCOCC2)oc2c(-c3ccccc3)cccc12

>  <metric.name>
ΔTm

>  <value.observed>
0.6

$$$$
>  <compound>
COC1=C2C[C@@H](C)C[C@H](OC)[C@H](O)[C@@H](C)/C=C(\C)[C@H](OC(N)=O)[C@@H](OC)/C=C\C=C(/C)C(=O)NC(=CC1=O)C2=O

>  <metric.name>
ΔTm

>  <value.observed>
0.5

$$$$
>  <compound>
COc1ccc(Cl)cc1NC(=O)Nc1cc(C)nc2ccccc12

>  <metric.name>
ΔTm

>  <value.observed>
1.4

$$$$
>  <compound>
O=C1Nc2ccc(I)cc2/C1=C1/Nc2ccccc2/C1=N\O

>  <metric.name>
ΔTm

>  <value.observed>
1.5

$$$$
>  <compound>
O=c1c(-c2ccc(F)cc2)c(-c2ccncc2)[nH]n1-c1ccc(Cl)cc1

>  <metric.name>
ΔTm

>  <value.observed>
0.5

$$$$
>  <compound>
O=[N+]([O-])c1ccc(-c2nc(-c3ccc(F)cc3)c(-c3ccncc3)[nH]2)cc1

>  <metric.name>
ΔTm

>  <value.observed>
3

$$$$
>  <compound>
O=C(O)/C=C/c1cc(CO)ccc1CO

>  <metric.name>
ΔTm

>  <value.observed>
0.7

$$$$
>  <compound>
CN(c1cccnc1)c1cc2c(Nc3ccc(F)c(Cl)c3)c(C#N)cnc2cn1

>  <metric.name>
ΔTm

>  <value.observed>
1.4

$$$$

###

system.tested: Dual specificity protein kinase CLK1 (Homo sapiens) (UniProt P49759)
Sequence (P49759 whole entry, looked up): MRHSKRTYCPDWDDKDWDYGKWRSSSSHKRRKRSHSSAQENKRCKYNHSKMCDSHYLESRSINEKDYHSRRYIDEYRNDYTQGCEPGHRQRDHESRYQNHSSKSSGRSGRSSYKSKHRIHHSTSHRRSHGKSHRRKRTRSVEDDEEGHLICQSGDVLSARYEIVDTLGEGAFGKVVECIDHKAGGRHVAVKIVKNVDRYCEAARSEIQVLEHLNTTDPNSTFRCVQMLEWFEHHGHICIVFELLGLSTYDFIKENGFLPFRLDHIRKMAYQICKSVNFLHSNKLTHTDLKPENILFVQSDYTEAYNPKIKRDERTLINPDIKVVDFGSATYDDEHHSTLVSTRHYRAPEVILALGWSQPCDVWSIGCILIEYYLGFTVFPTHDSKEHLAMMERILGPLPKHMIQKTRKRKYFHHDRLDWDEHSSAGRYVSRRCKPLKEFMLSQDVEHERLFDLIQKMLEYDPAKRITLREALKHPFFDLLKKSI
metric.name: ΔTm (°C)

>  <compound>
O=C1Nc2ccccc2/C1=C\c1ccc[nH]1

>  <value.unit>
°C

>  <value.observed>
2.7

$$$$
>  <compound>
O=c1c(-c2ccc(F)cc2)c(-c2ccncc2)[nH]n1-c1ccc(Cl)cc1

>  <value.unit>
°C

>  <value.observed>
1

$$$$
>  <compound>
CCOc1ccc(/C=C2/SC(=O)N(CCN)C2=O)cc1 [HIAZOLIDINEDIONE1]

>  <value.unit>
°C

>  <value.observed>
0.9

$$$$
>  <compound>
N=C(N)NCCNS(=O)(=O)c1cccc2cnccc12

>  <value.unit>
°C

>  <value.observed>
0.7

$$$$
>  <compound>
COc1ccc(COc2ccc(Cc3cnc(N)nc3N)cc2OC)cc1

>  <value.unit>
°C

>  <value.observed>
-1.5

$$$$
>  <compound>
Cn1cc(/C=C2/C(=O)Nc3ccc(S(N)(=O)=O)cc32)c2ccccc21

>  <value.unit>
°C

>  <value.observed>
4.7

$$$$
>  <compound>
Nc1ncnc2c1c(I)cn2[C@@H]1O[C@H](CO)[C@@H](O)[C@H]1O

>  <value.unit>
°C

>  <value.observed>
9.5

$$$$
>  <compound>
O=c1c(O)c(-c2ccc(O)c(O)c2)oc2cc(O)cc(O)c12 [QUERCETIN]

>  <value.unit>
°C

>  <value.observed>
7.7

$$$$
>  <compound>
CN(C)C[C@@H]1CCn2cc(c3ccccc32)C2=C(C(=O)NC2=O)c2cn(c3ccccc23)CCO1 [RUBOXISTAURIN]

>  <value.unit>
°C

>  <value.observed>
5.4

$$$$
>  <compound>
O=S(=O)(NCCNC/C=C/c1ccc(Br)cc1)c1cccc2cnccc12

>  <value.unit>
°C

>  <value.observed>
1.1

$$$$

###

system.tested: Calcium/calmodulin-dependent protein kinase type 1G (Homo sapiens)
Classify: rule met when ΔTm is strictly less than -0.1 °C; rule not met when ΔTm is not.

>  <compound>
COc1cccc(-c2cc(=O)c3ccccc3o2)c1N

>  <cat>
rule met

$$$$
>  <compound>
CN(C)C[C@@H]1CCn2cc(c3ccccc32)C2=C(C(=O)NC2=O)c2cn(c3ccccc23)CCO1 [RUBOXISTAURIN]

>  <cat>
rule not met

$$$$
>  <compound>
c1ccc(-c2n[nH]c3c2oc2ccccc23)cc1

>  <cat>
rule not met

$$$$
>  <compound>
Nc1n[nH]c2nc3ccccc3nc12 [QUINOXALINE1]

>  <cat>
rule not met

$$$$
>  <compound>
O=C1c2ccccc2-[n+]2ccc3c([nH]c4ccccc43)c21 [FASCAPLYSIN CHLORIDE]

>  <cat>
rule met

$$$$
>  <compound>
O=C1C(Cl)=C(N2C(=O)CCC2=O)C(=O)c2ccccc21

>  <cat>
rule met

$$$$
>  <compound>
NC1=NC(=O)/C(=C2\CCNC(=O)c3[nH]c(Br)cc32)N1 [HYMENIALDISINE]

>  <cat>
rule met

$$$$
>  <compound>
CC[C@H](CO)Nc1nc(NCc2ccccc2)c2ncn(C(C)C)c2n1 [SELICICLIB]

>  <cat>
rule not met

$$$$
>  <compound>
Brc1c(Br)c(Br)c2[nH]nnc2c1Br [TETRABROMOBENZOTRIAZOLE]

>  <cat>
rule met

$$$$
>  <compound>
COc1cc2ncnc(Nc3ccc(NC(=O)c4ccccc4)cc3)c2cc1OC [ANILINOQUINAZOLINE1]

>  <cat>
rule not met

$$$$
>  <compound>
N#C/C(=C\c1ccc(O)c(O)c1)C(=O)Nc1ccccc1

>  <cat>
rule not met

$$$$
>  <compound>
Nc1ncnc2c1c(I)cn2[C@@H]1O[C@H](CO)[C@@H](O)[C@H]1O

>  <cat>
rule not met

$$$$
>  <compound>
O=C1NC(=O)C(c2c[nH]c3ccccc23)=C1c1c[nH]c2ccccc12

>  <cat>
rule not met

$$$$
>  <compound>
COc1ccc(S(=O)(=O)N(CCO)c2ccccc2CN(C)C/C=C/c2ccc(Cl)cc2)cc1

>  <cat>
rule not met

$$$$
>  <compound>
O=[N+]([O-])c1ccc(-c2nc(-c3ccc(F)cc3)c(-c3ccncc3)[nH]2)cc1

>  <cat>
rule met

$$$$
>  <compound>
COc1cc(/C=C/C(=O)CC(=O)/C=C/c2ccc(O)c(OC)c2)ccc1O [CURCUMIN]

>  <cat>
rule not met

$$$$
>  <compound>
COc1ccc2c(c1)/C(=C/c1cnc[nH]1)C(=O)N2 [SU-9516]

>  <cat>
rule not met

$$$$
>  <compound>
O=C1Nc2ccccc2/C1=C1/Nc2ccccc2/C1=N\O

>  <cat>
rule not met

$$$$
>  <compound>
Cc1ccc(NC2=CC(=O)c3sc(C)nc3C2=O)cc1

>  <cat>
rule met

$$$$
>  <compound>
CCOC(=O)c1c(C)[nH]c(/C=C2\C(=O)Nc3ccccc32)c1C

>  <cat>
rule met

$$$$

###

system.tested: Glycogen synthase kinase-3 beta (Homo sapiens)
Sequence (P49841 whole entry, looked up): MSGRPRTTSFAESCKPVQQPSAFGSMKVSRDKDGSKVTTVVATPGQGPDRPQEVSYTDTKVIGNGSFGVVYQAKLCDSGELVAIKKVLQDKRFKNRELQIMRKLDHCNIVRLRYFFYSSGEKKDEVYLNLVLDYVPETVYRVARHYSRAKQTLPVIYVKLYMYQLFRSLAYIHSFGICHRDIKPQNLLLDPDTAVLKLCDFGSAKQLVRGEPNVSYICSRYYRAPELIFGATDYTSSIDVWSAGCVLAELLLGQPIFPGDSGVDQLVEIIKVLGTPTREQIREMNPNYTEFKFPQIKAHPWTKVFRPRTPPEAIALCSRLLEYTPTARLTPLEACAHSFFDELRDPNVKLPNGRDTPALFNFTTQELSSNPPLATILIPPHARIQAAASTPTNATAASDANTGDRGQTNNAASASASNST
ΔTm under 1 °C gets t, anything at or over 1 °C gets f.

>  <molecule>
N#CC(C#N)=Cc1ccc(O)c(O)c1 [TYRPHOSTIN 23]

>  <cat>
t

$$$$
>  <molecule>
CCN(CC)CCNC(=O)c1c(C)[nH]c(/C=C2\C(=O)Nc3ccc(F)cc32)c1C

>  <cat>
f

$$$$
>  <molecule>
CC(C)[C@H](CO)Nc1nc(Nc2cc(N)cc(Cl)c2)c2ncn(C(C)C)c2n1 [AMINOPURVALANOL]

>  <cat>
t

$$$$
>  <molecule>
COc1cc(OC)c(/C=C2\C(=O)Nc3ccccc32)c(OC)c1

>  <cat>
t

$$$$
>  <molecule>
NS(=O)(=O)c1ccc(Nc2nc(OCC3CCCCC3)c3nc[nH]c3n2)cc1

>  <cat>
f

$$$$
>  <molecule>
COC(=O)[C@]1(O)C[C@@H]2O[C@@]1(C)n1c3ccccc3c3c4c(c5c6ccccc6n2c5c31)C(=O)NC4 (single isomer, unassigned)

>  <cat>
f

$$$$
>  <molecule>
NC1=N/C(=C2/CCNC(=O)c3[nH]ccc32)C(=O)N1 [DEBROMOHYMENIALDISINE]

>  <cat>
f

$$$$
>  <molecule>
O=c1c2ccccc2[nH]c(=S)n1CCN1CCC(=C(c2ccc(F)cc2)c2ccc(F)cc2)CC1 [DIACYLGLYCEROL KINASE INHIBITOR II]

>  <cat>
f

$$$$
>  <molecule>
Cc1ccc(NC(=O)c2cccc(N(C)C)c2)cc1NC(=O)c1ccc(O)cc1

>  <cat>
t

$$$$
>  <molecule>
O=C(O)c1cc(NCc2cc(O)ccc2O)ccc1O

>  <cat>
t

$$$$
>  <molecule>
Nc1cc2ncnc(Nc3cccc(Br)c3)c2cc1N

>  <cat>
f

$$$$
>  <molecule>
Nc1ncnc2c1c(I)cn2[C@@H]1O[C@H](CO)[C@@H](O)[C@H]1O

>  <cat>
f

$$$$
>  <molecule>
COc1cc2ncnc(Nc3cccc(O)c3)c2cc1OC

>  <cat>
f

$$$$
>  <molecule>
O=C(Nc1cccc(Nc2cc(Nc3cccc(C(F)(F)F)c3)ncn2)c1)C1CC1

>  <cat>
f

$$$$
>  <molecule>
CCN(CC)CCNC(=O)c1c(C)[nH]c(/C=C2\C(=O)Nc3ccc(Cl)cc32)c1C [SU-11652]

>  <cat>
f

$$$$
>  <molecule>
Cn1cc(C2=C(c3cn(CCCSC(=N)N)c4ccccc34)C(=O)NC2=O)c2ccccc21

>  <cat>
f

$$$$
>  <molecule>
O=C1Nc2ccccc2/C1=C1/Nc2ccccc2/C1=N\O

>  <cat>
f

$$$$
>  <molecule>
Cc1cc2ncc(-c3ccccc3)nc2cc1C

>  <cat>
t

$$$$
>  <molecule>
Oc1cccc(-c2nc(N3CCOCC3)c3oc4ncccc4c3n2)c1

>  <cat>
t

$$$$
>  <molecule>
C[C@@H]1C[C@H]2O[C@@H]2/C=C\C=C\C(=O)Cc2c(Cl)c(O)cc(O)c2C(=O)O1 [RADICICOL]

>  <cat>
t

$$$$
>  <molecule>
Nc1n[nH]c2nc3ccccc3nc12 [QUINOXALINE1]

>  <cat>
f

$$$$
>  <molecule>
O=C1Cc2c([nH]c3ccc(Br)cc23)-c2ccccc2N1 [KENPAULLONE]

>  <cat>
f

$$$$
>  <molecule>
CC(C)n1cnc2c(NCc3ccccc3)nc(NCCCO)nc21

>  <cat>
t

$$$$
>  <molecule>
COc1cc(/C=C/C(=O)CC(=O)/C=C/c2ccc(O)c(OC)c2)ccc1O [CURCUMIN]

>  <cat>
f

$$$$
>  <molecule>
CC(C)c1cc(/C=C(\C#N)C(=O)NCCCc2ccccc2)cc(C(C)C)c1O

>  <cat>
t

$$$$
>  <molecule>
Nc1cccc(-c2cc3c(Oc4cccc(O)c4)ncnc3[nH]2)c1

>  <cat>
f

$$$$
>  <molecule>
O=C1c2ccccc2-c2n[nH]c3cccc1c23

>  <cat>
f

$$$$
>  <molecule>
C[S+]([O-])c1ccc(CSc2nc(-c3ccc(F)cc3)c(-c3ccncc3)[nH]2)cc1 (stereo not given)

>  <cat>
t

$$$$
>  <molecule>
Cn1cnc2c(NCc3ccccc3)nc(NCCO)nc21 [OLOMOUCINE]

>  <cat>
t

$$$$
>  <molecule>
CC(=O)O/N=C1/C(=C2/C(=O)Nc3cc(Br)ccc32)Nc2ccccc21 [6-BROMOINDIRUBIN-3'-ACETOXIME]

>  <cat>
f

$$$$
>  <molecule>
O=C1Nc2ccccc2/C1=C\c1ccc[nH]1

>  <cat>
f

$$$$
>  <molecule>
CC(C)c1nn(-c2c(Cl)cccc2Cl)c2nc(Cc3ccc(OCCO)cc3)[nH]c(=O)c12

>  <cat>
t

$$$$
>  <molecule>
CN(C)CCCn1cc(C2=C(c3c[nH]c4ccccc34)C(=O)NC2=O)c2ccccc21 [GF-109203]

>  <cat>
f

$$$$
>  <molecule>
N#C/C(=C(/N)Sc1ccc(N)cc1)c1ccccc1C(F)(F)F

>  <cat>
t

$$$$
>  <molecule>
O=c1cc(N2CCOCC2)oc2c1ccc1ccccc12

>  <cat>
f

$$$$
>  <molecule>
COc1ccc(Cl)cc1NC(=O)Nc1cc(C)nc2ccccc12

>  <cat>
t

$$$$
>  <molecule>
CCOC(=O)c1c(C)[nH]c(/C=C2\C(=O)Nc3ccccc32)c1C

>  <cat>
f

$$$$
>  <molecule>
N#C/C(=C\c1ccc(O)c(O)c1)C(=O)Nc1ccccc1

>  <cat>
t

$$$$
>  <molecule>
O=c1sn(Cc2ccccc2)c(=S)n1Cc1ccccc1

>  <cat>
t

$$$$
>  <molecule>
NC(=O)c1ccc(-c2nc(-c3ccc4c(c3)OCCO4)c(-c3ccccn3)[nH]2)cc1

>  <cat>
t

$$$$
